# Tgt: UniProt Q9HBA0
# Sequence (Q9HBA0 whole entry): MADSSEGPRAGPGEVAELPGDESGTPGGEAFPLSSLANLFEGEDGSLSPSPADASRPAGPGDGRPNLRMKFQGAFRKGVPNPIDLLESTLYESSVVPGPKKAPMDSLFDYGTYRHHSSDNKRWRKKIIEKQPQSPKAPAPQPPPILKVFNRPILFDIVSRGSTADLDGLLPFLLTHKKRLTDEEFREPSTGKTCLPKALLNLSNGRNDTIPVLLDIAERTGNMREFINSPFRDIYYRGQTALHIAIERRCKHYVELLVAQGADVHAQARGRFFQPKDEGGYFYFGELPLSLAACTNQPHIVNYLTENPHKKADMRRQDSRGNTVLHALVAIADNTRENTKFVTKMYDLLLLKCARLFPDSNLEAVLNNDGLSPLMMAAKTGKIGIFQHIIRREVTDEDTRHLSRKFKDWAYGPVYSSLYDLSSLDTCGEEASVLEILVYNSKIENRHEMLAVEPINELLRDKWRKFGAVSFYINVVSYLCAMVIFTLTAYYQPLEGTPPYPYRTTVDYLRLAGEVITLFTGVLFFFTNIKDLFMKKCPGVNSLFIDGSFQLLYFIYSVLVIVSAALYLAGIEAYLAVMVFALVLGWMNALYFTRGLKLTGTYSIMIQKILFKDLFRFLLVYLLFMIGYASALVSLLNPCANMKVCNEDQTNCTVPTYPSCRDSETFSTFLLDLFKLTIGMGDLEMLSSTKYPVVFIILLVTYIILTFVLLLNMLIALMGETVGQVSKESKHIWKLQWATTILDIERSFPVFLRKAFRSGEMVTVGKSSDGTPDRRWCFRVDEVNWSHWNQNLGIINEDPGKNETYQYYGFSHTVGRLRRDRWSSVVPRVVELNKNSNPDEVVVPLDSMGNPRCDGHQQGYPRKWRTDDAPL
# Protocol Description: Test Example 1: measurement of TRPV4 inhibitory activity (Fluo 4-AM, FLIPR TETRA, 4α-PDD 1 μmol/L)
# Type: cell-based
# Run Parameters: hTRPV4/CHO cells, 4α-PDD 1 μmol/L
Measurement Name: IC50 (µM)

1) Cc1c(C(=O)Nc2cccc(C(F)(F)F)c2)cc(-c2ccncc2)n1CCCN1CCOCC1 :: 1.7
2) Cc1c(C(=O)Nc2cccc(C(F)(F)F)c2)cc(-c2ccccc2)n1CCCN1CCCCC1 :: 0.082

1 = Cc1c(C(=O)Nc2cccc(C(F)(F)F)c2)cc(-c2ccccc2)n1CCCN(C)C
2 = CNCC(C)(C)Cn1c(C(C)(C)C)cc(C(=O)Nc2cccc(C(F)(F)F)c2)c1C
3 = Cc1c(C(=O)Nc2cccc(C(F)(F)F)c2)cc(C(C)(C)C)n1[C@H]1CC[C@H](NS(C)(=O)=O)CC1
4 = CC(=O)N1CCC(c2cc(C(=O)Nc3cccc(C(F)(F)F)c3)c(C)n2CCCN2CCOCC2)CC1
Ask | Order the 4 compounds from highest to lowest IC50. State the ranking by listing the labels in the requested order.
Reply | 3, 4, 2, 1
(3: 8.7 µM, 4: 4.7 µM, 2: 0.83 µM, 1: 0.33 µM)
